Recorded values, source PubChem BioAssay AID504339.

Target: Lysine-specific demethylase 4A (Homo sapiens) (UniProt O75164)
Sequence (O75164 whole entry, looked up, the tested form may be a part): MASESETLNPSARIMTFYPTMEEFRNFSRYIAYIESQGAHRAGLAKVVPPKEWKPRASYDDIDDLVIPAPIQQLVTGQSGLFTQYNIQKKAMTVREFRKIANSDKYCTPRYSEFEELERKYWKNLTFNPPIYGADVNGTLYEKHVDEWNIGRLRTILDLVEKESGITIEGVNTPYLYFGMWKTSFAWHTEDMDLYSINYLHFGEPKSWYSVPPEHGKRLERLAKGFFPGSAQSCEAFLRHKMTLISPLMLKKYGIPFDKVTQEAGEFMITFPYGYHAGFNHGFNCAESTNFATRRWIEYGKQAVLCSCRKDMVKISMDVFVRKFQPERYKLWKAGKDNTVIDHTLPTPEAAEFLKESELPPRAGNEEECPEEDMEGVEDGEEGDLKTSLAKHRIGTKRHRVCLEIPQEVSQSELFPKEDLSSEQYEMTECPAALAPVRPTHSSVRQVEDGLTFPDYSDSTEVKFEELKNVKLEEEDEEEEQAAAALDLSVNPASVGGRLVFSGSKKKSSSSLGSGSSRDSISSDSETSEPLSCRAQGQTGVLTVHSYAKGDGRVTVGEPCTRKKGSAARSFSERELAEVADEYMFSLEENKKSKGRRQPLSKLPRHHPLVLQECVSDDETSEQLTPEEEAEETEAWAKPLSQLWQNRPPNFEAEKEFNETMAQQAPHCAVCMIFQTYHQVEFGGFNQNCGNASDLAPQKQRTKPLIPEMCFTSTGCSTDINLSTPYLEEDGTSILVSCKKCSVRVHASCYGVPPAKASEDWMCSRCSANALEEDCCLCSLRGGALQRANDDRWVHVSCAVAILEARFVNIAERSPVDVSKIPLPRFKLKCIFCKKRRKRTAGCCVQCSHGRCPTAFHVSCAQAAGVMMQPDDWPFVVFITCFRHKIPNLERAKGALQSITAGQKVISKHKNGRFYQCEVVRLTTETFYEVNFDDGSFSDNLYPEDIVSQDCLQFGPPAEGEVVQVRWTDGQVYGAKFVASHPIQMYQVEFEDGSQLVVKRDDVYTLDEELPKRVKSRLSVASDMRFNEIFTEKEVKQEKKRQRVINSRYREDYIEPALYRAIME
Experiment: qHTS Assay for Inhibitors of JMJD2A-Tudor Domain; also: nearly all actives have a fitted effect of over 50% in size
Conditions: AlphaScreen JMJD2A-Tudor / H3K4me3 peptide binding; series mostly up to 114 µM
Among all 390,000 compounds or so, about 17,000 (4.4%) were called active. Not shown: some 8% with an inconclusive outcome. Calls follow the shape of the dose curve; as a rule, active = well fitted inhibition curve with a large enough effect; inconclusive = small, poorly fitted or top-dose-only effect; inactive = no such curve, though single readings can be large or run the other way. This excerpt belongs to a sample that is enriched for actives.
In this exercise, the only acceptable responses are active, inactive

Field: example entries. Status: answers known.
COMPOUND: COc1cc(C2C(C(=O)c3ccc(C)o3)=C(O)C(=O)N2CCc2ccccc2)ccc1O (stereo not given)
GROUP: active

COMPOUND: Cc1cc(OCCCN2CCN(Cc3ccccc3)CC2)ccc1[N+](=O)[O-]
GROUP: active

COMPOUND: Cn1c(=O)oc2cc(S(=O)(=O)CCC(=O)NCCc3ccc(Cl)cc3)ccc21
GROUP: inactive

COMPOUND: O=C(NC1CC(=O)N(c2ccc(F)cc2)C1)C1CCCCC1 (stereo not given)
GROUP: inactive

Would you mind telling me which call this test gave Cc1cc(N2C(=O)C(=O)/C(=C(/O)c3ccccc3)C2c2cccc(Br)c2)no1 (stereo not given) ?
inactive

###

Molecular target: Lysine-specific demethylase 4A (Homo sapiens)
Assay: qHTS Assay for Inhibitors of JMJD2A-Tudor Domain; also: nearly all actives have a fitted effect of over 50% in size
Details: AlphaScreen JMJD2A-Tudor / H3K4me3 peptide binding; series mostly up to 114 µM
The whole screen tested about 390,000 compounds, of which about 17,000 (4.4%) were called active. Inconclusive results (about 8%) are left out. The call rests on the fitted dose curve; in most records, active means well fitted inhibition curve with a large enough effect; inconclusive means small, poorly fitted or top-dose-only effect; inactive means no such curve, though single readings can be large or run the other way. Only a selection was taken, and actives are over-represented in it overall.
In this exercise, the only acceptable responses are y (active), n (inactive)

Field: example entries. Status: answers known.
COMPOUND: COc1ccccc1NC(=O)c1sc2nc(C)c(C(=O)Nc3ccc(Cl)cc3)c(-c3ccc(Br)cc3)c2c1N
MEASUREMENT_TARGET: Lysine-specific demethylase 4A (Homo sapiens)
GROUP: n
//
COMPOUND: O=S(=O)(c1ccccc1)c1nc(-c2ccccc2)oc1NCCCN1CCOCC1
MEASUREMENT_TARGET: Lysine-specific demethylase 4A (Homo sapiens)
GROUP: n
//
COMPOUND: N#Cc1nc(-c2ccc(OCc3ccccc3)cc2)oc1NCCCN1CCOCC1
MEASUREMENT_TARGET: Lysine-specific demethylase 4A (Homo sapiens)
GROUP: y
//
COMPOUND: COc1ccc(-c2nnc(SCC(=O)NC3CCCCC3)o2)cc1OC
MEASUREMENT_TARGET: Lysine-specific demethylase 4A (Homo sapiens)
GROUP: n
//
COMPOUND: CC1CC(C)CN(c2oc(-c3ccc(OCc4ccc(Cl)cc4)cc3)nc2C#N)C1 (configuration not stated)
MEASUREMENT_TARGET: Lysine-specific demethylase 4A (Homo sapiens)
GROUP: n
//
COMPOUND: CSCCC(C(=O)NC1=NCCS1)N1C(=O)c2ccccc2C1=O (configuration not stated)
MEASUREMENT_TARGET: Lysine-specific demethylase 4A (Homo sapiens)
GROUP: y
//
COMPOUND: COc1ccccc1-n1ccnc(SCC(=O)NC2CCCCC2)c1=O
MEASUREMENT_TARGET: Lysine-specific demethylase 4A (Homo sapiens)
GROUP: y
//
COMPOUND: O=C(O)C1CC=CC2CCN(C3CCCCC3)C(=O)C21 (configuration not stated)
MEASUREMENT_TARGET: Lysine-specific demethylase 4A (Homo sapiens)
GROUP: n
//
COMPOUND: CCCN(CCC)c1nc2c(C)cccn2c(=O)c1/C=C1/SC(=S)N(Cc2ccco2)C1=O
MEASUREMENT_TARGET: Lysine-specific demethylase 4A (Homo sapiens)
GROUP: y
//
COMPOUND: COCCCNC(=O)c1ccc(NC(=O)c2nsc3ccccc23)cc1
MEASUREMENT_TARGET: Lysine-specific demethylase 4A (Homo sapiens)
GROUP: n

Would you mind telling me which call this test gave CCC(=O)N1CCc2cc(S(=O)(=O)NC(C(=O)NCCc3ccc(C)cc3)C(C)C)ccc21 (configuration not stated) ?
n

Would you mind telling me which call this test gave `CCCCCn1c(=O)[nH]c2cc(C(=O)NCCN(C)CCCC)ccc2c1=O` ?
n

Would you mind telling me which call this test gave Cc1cc(C(=O)NNC(=S)NC(C)c2ccccc2)cs1 (configuration not stated) ?
n

Would you mind telling me which call this test gave COc1ccc(CNC(=O)COC(=O)C(CCSC)N2C(=O)c3ccccc3C2=O)cc1 (configuration not stated) ?
n

Would you mind telling me which call this test gave CCOC(=O)CC1C(=O)NCCN1c1nc2c(C)cccn2c(=O)c1/C=C1\SC(=S)N(C(C)CC)C1=O (configuration not stated) ?
n

Would you mind telling me which call this test gave `O=C(Nc1ccc(N2CCOCC2)cc1)c1ccc2c(c1)OCO2` ?
y

###

Target: Lysine-specific demethylase 4A (Homo sapiens)
Assay: qHTS Assay for Inhibitors of JMJD2A-Tudor Domain; also: nearly all actives have a fitted effect of over 50% in size; as to activity change, negative = inhibition: % is scaled to controls: 0 for no effect and ±100 for the full control effect
Settings: AlphaScreen JMJD2A-Tudor / H3K4me3 peptide binding; series mostly up to 114 µM
Among all 390,000 compounds or so, about 17,000 (4.4%) were called active. Inconclusive results (about 8%) are left out. The entries come from a sample that favours actives as a whole.
Assign activity change, negative = inhibition to each entry below.

Please review the entries below; each comes with its answer.
COMPOUND: Cn1c(-c2sccc2OCc2cccc(C(F)(F)F)c2)n[nH]c1=S
REPORTED_RESULT: -12% [at 11.4 µM] (inactive)
--
COMPOUND: CC(OC(=O)c1ccc2ccccc2n1)C(=O)c1ccccc1 (stereo not given)
REPORTED_RESULT: -2.94% [at 11.4 µM] (inactive)
--
COMPOUND: CC1CCCCN1S(=O)(=O)c1ccc(C(=O)Nc2nnc(-c3cccs3)o2)cc1 (stereo not given)
REPORTED_RESULT: -1.53% [at 11.4 µM] (inactive)
--
COMPOUND: Cc1ccc2[nH]c(=O)c(-c3nc4c(C)cccn4c3NCc3ccco3)cc2c1
REPORTED_RESULT: -23.3% [at 11.4 µM] (inactive)
--
COMPOUND: COc1cc(C(=O)N(Cc2ccc(N(C)C)cc2)C2CCS(=O)(=O)C2)cc(OC)c1OC (stereo not given)
REPORTED_RESULT: -6.11% [at 11.4 µM] (inactive)
--
COMPOUND: S=c1nc2ccccc2c2nc(-c3cccnc3)[nH]n12
REPORTED_RESULT: -17.6% [at 11.4 µM] (inactive)
--
COMPOUND: COc1ccc(C2C(C#N)=C(N)N(c3ncn[nH]3)C3=C2C(=O)CCC3)cc1 (stereo not given)
REPORTED_RESULT: -18% [at 11.4 µM] (inactive)
--
COMPOUND: COC(=O)C1=C(C)NC2=C(C(=O)c3ccccc32)C1c1ccc(-c2ccc(C(=O)O)cc2)o1 (stereo not given)
REPORTED_RESULT: -17.6% [at 11.4 µM] (inactive)

Provide each entry's activity change, negative = inhibition from the list below.
1. CCn1c(CSCc2c(Cl)cccc2Cl)n[nH]c1=S
2. COc1ccc(OC)c(Nc2nc3ccccc3n3cnnc23)c1

1: -16.5% [at 11.4 µM] (inactive); 2: -5.88% [at 11.4 µM] (inactive)

###

Target: Lysine-specific demethylase 4A (Homo sapiens)
Test: qHTS Assay for Inhibitors of JMJD2A-Tudor Domain; also: nearly all actives have a fitted effect of over 50% in size
Conditions: AlphaScreen JMJD2A-Tudor / H3K4me3 peptide binding; series mostly up to 114 µM
Hit rate of the full screen: of about 390,000 compounds, about 17,000 (4.4%) were called active. Inconclusive results (about 8%) are left out. Calls come from the whole dose curve; as a rule, active = well fitted inhibition curve with a large enough effect; inconclusive = small, poorly fitted or top-dose-only effect; inactive = no such curve, though single readings can be large or run the other way. For the sample, actives were picked, then their nearest neighbours and some compounds at random.
In this exercise, the only acceptable responses are active, inactive

Field: example entries. Status: answers known.
COMPOUND: Cc1nn2c(=O)cc(COC(=O)c3cccc(NC(=O)COc4ccccc4Cl)c3)nc2s1
MEASUREMENT_TARGET: Lysine-specific demethylase 4A (Homo sapiens)
GROUP: inactive

COMPOUND: CCCCCn1c(=O)[nH]c2cc(C(=O)Nc3cc(C)cc(C)c3)ccc2c1=O
MEASUREMENT_TARGET: Lysine-specific demethylase 4A (Homo sapiens)
GROUP: inactive

Kindly review the next compound as well.
Would you mind telling me which call this test gave `Cc1nc(SCC(=O)NC2CCCC2)[nH]c(=O)c1C` ?
inactive

###

Biological target: Lysine-specific demethylase 4A (Homo sapiens)
Test: qHTS Assay for Inhibitors of JMJD2A-Tudor Domain; also: nearly all actives have a fitted effect of over 50% in size
Settings: AlphaScreen JMJD2A-Tudor / H3K4me3 peptide binding; series mostly up to 114 µM
The whole screen tested about 390,000 compounds, of which about 17,000 (4.4%) were called active. About 8% were inconclusive and are not listed. Calls come from the whole dose curve; as a rule, active = well fitted inhibition curve with a large enough effect; inconclusive = small, poorly fitted or top-dose-only effect; inactive = no such curve, though single readings can be large or run the other way. This is one part of a sample in which actives are shown more often than they occur.
In this exercise, the only acceptable responses are true for active, false for inactive

COMPOUND: Oc1oc(-c2ccccc2Br)nc1/C=N/c1ccccn1
GROUP: false
--
COMPOUND: C[C@@H](NC(=O)c1nc[nH]c1C(=O)N1CCN(C(=O)OC(C)(C)C)CC1)c1ccccc1
GROUP: true
--
COMPOUND: Cc1cc(C)cc(NS(=O)(=O)c2ccc(-c3cc(C)no3)s2)c1
GROUP: false
--
COMPOUND: Cc1cccc(C2CC(=O)Oc3c2c(=O)n(C)c2ccccc32)c1 (stereo not given)
GROUP: false
--
COMPOUND: Cn1c(COc2ccccc2C(C)(C)C)nc2ccccc21
GROUP: false
--
COMPOUND: NC(=O)C1CCN(C2OC(=O)c3ccccc32)CC1 (stereo not given)
GROUP: false
--
COMPOUND: NC(=O)C1CCN(Cc2nc3c(Br)cc(Br)cc3c(=O)[nH]2)CC1
GROUP: true
--
COMPOUND: Cc1cc(C)cc(Nc2ncnc3onc(-c4ccc(F)cc4)c23)c1
GROUP: false

Would you mind telling me which call this test gave `NC(=O)C1CCN(C(=O)c2ccc3c(=O)n(Cc4cccc(Br)c4)c(=S)[nH]c3c2)CC1` ?
false

Would you mind telling me which call this test gave `COc1ccc(-c2nnc(SCC(=O)Nc3ccc(C(C)C)cc3)nc2-c2ccc(OC)c(OC)c2)cc1OC` ?
false
